# GFP response relative to DMSO per record follows
Assay: LAP4-GFP expression modulators in yeast, confirmation, cell-based, cherry picks, flow cytometry, mother/daughter gates (AID 2271);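 further: ratio of sample to DMSO plate mean so 100% equals DMSO level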
Conditions: S. cerevisiae LAP4-GFP strain, 3 h, measured here: daughter cell gate response, at 10 µM, stronger effect = higher value, 100 means same as DMSO control
Field: numeric (%). Do not append units.

compound=Cn1cc(/C=C/c2cc[n+](C)cc2)c2cc(Cl)ccc21 measured_parameter="GFP response relative to DMSO" recorded_result=112
compound="Cc1ccc(NC(=S)N2CCSC2c2cccs2)cc1 (stereo not given)" measured_parameter="GFP response relative to DMSO" recorded_result=99
compound=O=C(COC(=O)C1CCN(c2ccc(C(F)(F)F)cn2)CC1)Nc1cccc(F)c1 measured_parameter="GFP response relative to DMSO" recorded_result=102
compound=O=C(Cc1ccc(-c2ccccc2)cc1)OCC(=O)N1CCCC1=O measured_parameter="GFP response relative to DMSO" recorded_result=111

input: I'd like to know its GFP response relative to DMSO. The compound in question is `O=C1/C(=C\c2ccc(O)c(O)c2)SC(=S)N1Cc1ccccc1`
output: 117

---

Assay: modulators of CIT2-GFP expression in yeast, confirmation, S. cerevisiae, GFP fusion, cherry picks, mother/daughter gates (AID 2274)
Settings: S. cerevisiae CIT2-GFP strain, flow cytometry, 3 h; at 10 µM; stronger effect = higher value
MEASURED_PARAMETER: GFP response, % of DMSO (%)
Field: numeric (%). Do not append units.

Worked examples follow.
molecule=CC(C)NC(=O)c1ccccc1-c1nc(-c2ccccc2Cl)no1 measured_parameter="GFP response, % of DMSO" recorded_result=91.3
molecule=Oc1ccc(COCc2ccccc2)c2cccnc12 measured_parameter="GFP response, % of DMSO" recorded_result=95.8
molecule=Cc1ccc(/C=C2/NC(=O)N(Cc3ccccc3)C2=O)o1 measured_parameter="GFP response, % of DMSO" recorded_result=103
molecule=O=C1[C@@H]2C3C=CC(O3)[C@@H]2C(=O)N1c1ccccc1 measured_parameter="GFP response, % of DMSO" recorded_result=100
molecule=Cc1nc(Sc2ccccc2)c(C#N)c(C)c1[N+](=O)[O-] measured_parameter="GFP response, % of DMSO" recorded_result=115
molecule="O=C1CC(Sc2nnnn2C2CCCCC2)C(=O)N1c1ccccc1 (stereo not drawn)" measured_parameter="GFP response, % of DMSO" recorded_result=95
molecule="COc1ccc(C2CC(c3c(-c4ccccc4)c4cc(Cl)ccc4[nH]c3=O)=NN2S(C)(=O)=O)cc1 (stereo not drawn)" measured_parameter="GFP response, % of DMSO" recorded_result=99.7
molecule=COc1ccc(/C=N\NC(=O)c2cc(OCC(F)(F)F)ccc2OCC(F)(F)F)cc1 measured_parameter="GFP response, % of DMSO" recorded_result=98.3

input: I'd like to know its GFP response, % of DMSO. The molecule in question is `CS(=O)(=O)c1nc(-c2ccccc2)cc(C(F)(F)F)n1`
output: 95.2

input: I'd like to know its GFP response, % of DMSO. The molecule in question is `Cc1csc(Nc2ccccc2C(F)(F)F)n1`
output: 97.2

input: I'd like to know its GFP response, % of DMSO. The molecule in question is `Cc1cccc2nc(-c3cccnc3)c(NCCC(C)C)n12`
output: 96.5

input: I'd like to know its GFP response, % of DMSO. The molecule in question is `CCOC(=O)C(=CNNc1ccccc1)C(=O)OCC`
output: 103

input: I'd like to know its GFP response, % of DMSO. The molecule in question is `CCOc1cc(/C=C2\N=C(C)OC2=O)cc(Br)c1OCCc1ccccc1`
output: 92.1

---

Experiment: modulators of CIT2-GFP expression in yeast, confirmation, S. cerevisiae, GFP fusion, cherry picks, mother/daughter gates (AID 2274)
Settings: S. cerevisiae CIT2-GFP strain, flow cytometry, 3 h; measured here: daughter cell gate; at 10 µM; stronger effect = higher value
# GFP response, % of DMSO per record follows
Field: numeric (%). Do not append units.

Worked examples follow.
compound=O=[N+]([O-])c1ccc(N2CCN(CCO)CC2)cc1Sc1ccccn1 measured_parameter="GFP response, % of DMSO" recorded_result=101
compound="CCCCOC(=O)C1CCC[C@@H](C)N1 (stereo partly drawn)" measured_parameter="GFP response, % of DMSO" recorded_result=101

Then there is this compound:
input: I'd like to know its GFP response, % of DMSO. The compound in question is `CC(C)C(=O)Nc1ccc(NC(=O)c2cc3ccccc3o2)cc1`
output: 97.6

---

Assay: modulators of CIT2-GFP expression in yeast, confirmation, S. cerevisiae, GFP fusion, cherry picks, mother/daughter gates (AID 2274)
Conditions: S. cerevisiae CIT2-GFP strain, flow cytometry, 3 h; at 10 µM; stronger effect = higher value
# GFP response, % of DMSO per record follows
Field: numeric (%). Do not append units.

Worked examples follow.
molecule=Cc1nn(Cc2ccc(Cl)cc2)c(=O)n1N(C)c1ncc(C(F)(F)F)cc1Cl recorded_result=99.7
molecule=CNC(=O)/C(C#N)=C/c1c(N(Cc2ccccc2)Cc2ccccc2)nc2c(C)cccn2c1=O recorded_result=106
molecule="O=S(=O)(CCN(CCS(=O)(=O)C(F)(F)F)CC1CCCO1)C(F)(F)F (stereo unspecified)" recorded_result=111
molecule=C=CCOc1cccc(C(=O)/C=C2/C(=O)Nc3ccccc32)c1 recorded_result=102
molecule=CCC(=O)Nc1cccc(C(=O)/C=C/c2ccccc2)c1 recorded_result=97.3
molecule=C/C(=N\NC(=O)c1cccc(Cl)c1)c1cccc(NC(=O)C(C)C)c1 recorded_result=100
molecule=O=C(Oc1c(Cl)cc(Cl)c2cccnc12)c1ccco1 recorded_result=95.9
molecule=COc1ccc(/C=C2\Sc3ccc(C(=O)N4CCc5ccccc5C4)cc3N(C)C2=O)cc1 recorded_result=99.7

input: I'd like to know its GFP response, % of DMSO. The molecule in question is `COC(=O)c1ccccc1Sc1ncnc2onc(C)c12`
output: 108

input: I'd like to know its GFP response, % of DMSO. The molecule in question is `CC(=O)c1ccc(Sc2ccccn2)c([N+](=O)[O-])c1`
output: 101

input: I'd like to know its GFP response, % of DMSO. The molecule in question is `O=C(c1ccccc1)N1CCN(c2ccccc2F)CC1`
output: 95.8

---

# GFP response, % of DMSO per record follows
Assay: modulators of CIT2-GFP expression in yeast, confirmation, S. cerevisiae, GFP fusion, cherry picks, mother/daughter gates (AID 2274)
Settings: S. cerevisiae CIT2-GFP strain, flow cytometry, 3 h; at 10 µM; stronger effect = higher value
Field: numeric (%). Do not append units.

Worked examples follow.
molecule=O=C(c1ccccc1F)N1CCN(c2ccccc2F)CC1 recorded_result=104
molecule=O=C(Nc1ccc(Cl)cc1Cl)c1cccc(N2C(=O)C=CC2=O)c1 recorded_result=96.9
molecule="CCCOc1ccc(N2C(=O)CC(SCCN)C2=O)cc1 (centres undefined)" recorded_result=98.3

Then there is this molecule:
input: I'd like to know its GFP response, % of DMSO. The molecule in question is Cc1ccc(/C=C2\SC(=S)N(CC3CCCO3)C2=O)o1 (centres undefined)
output: 98.6

---

Assay: modulators of CIT2-GFP expression in yeast, confirmation, S. cerevisiae, GFP fusion, cherry picks, mother/daughter gates (AID 2274)
Details: S. cerevisiae CIT2-GFP strain, flow cytometry, 3 h; measured here: mother cell gate; at 10 µM; stronger effect = higher value
# GFP response, % of DMSO per record follows
Field: numeric (%). Do not append units.

compound=COc1ccc(/C=C/C(=O)c2ccc(OC)cc2O)cc1 measured_parameter="GFP response, % of DMSO" recorded_result=100
compound="CC1CN(c2nc3ccccn3c(=O)c2/C=C(\\C#N)C(N)=O)CC(C)O1 (stereo unspecified)" measured_parameter="GFP response, % of DMSO" recorded_result=103
compound=CCc1ccc(-c2csc(NC(=O)COC(=O)CCc3nc4ccccc4s3)n2)cc1 measured_parameter="GFP response, % of DMSO" recorded_result=105

input: I'd like to know its GFP response, % of DMSO. The compound in question is `Oc1ccc(-c2nc3ccccn3c2NCc2ccco2)cc1`
output: 101

input: I'd like to know its GFP response, % of DMSO. The compound in question is `O=[N+]([O-])c1cc(C(F)(F)F)ccc1NCCc1ccccn1`
output: 106

input: I'd like to know its GFP response, % of DMSO. The compound in question is `CCCCOc1ccc(C(=O)N2CCN(c3ccc(N4CCOCC4)nn3)CC2)cc1`
output: 98.5

input: I'd like to know its GFP response, % of DMSO. The compound in question is `Oc1c(CN2CCN(c3ccc(F)cc3)CC2)cc(Cl)c2cccnc12`
output: 125

input: I'd like to know its GFP response, % of DMSO. The compound in question is `COc1ccc(-c2nc(NC(=O)c3cc(C(C)(C)C)nn3C)sc2C)cc1`
output: 104

input: I'd like to know its GFP response, % of DMSO. The compound in question is `CCCCNC(=O)c1cc2c(=O)n3cccc(C)c3nc2n(Cc2ccncc2)c1=N`
output: 95.6

input: I'd like to know its GFP response, % of DMSO. The compound in question is `Cc1nc(Sc2ccc(Cl)cc2)c(C#N)c(C)c1[N+](=O)[O-]`
output: 103

input: I'd like to know its GFP response, % of DMSO. The compound in question is `Oc1ccc(C2Nc3cccc4cccc(c34)N2)cc1`
output: 102

input: I'd like to know its GFP response, % of DMSO. The compound in question is `O=[N+]([O-])c1c(Nc2ccccn2)cc(Cl)c2nonc12`
output: 906

input: I'd like to know its GFP response, % of DMSO. The compound in question is `NC(=O)c1ccc(Oc2ccc(-c3nnco3)cc2)c([N+](=O)[O-])c1`
output: 112
